experiment-description: refractive index (Na D-line) (dimensionless)
test-parameters: 318.15 K; Liquid; Standard Abbe refractometry
Known refractive index of a selection of compounds
Response field accepts a number only; no unit should be typed.

Below: 3 compounds and their reported refractive index.
[[record]]
compound = "Cc1ccccc1 [toluene]"
val = 1.4826

[[record]]
compound = "Cc1ccc(C)cc1 [1,4-dimethylbenzene]"
val = 1.483

[[record]]
compound = "c1ccccc1 [benzene]"
val = 1.4856


Query: refractive index; subject: Cc1cccc(C)c1 [1,3-dimethylbenzene]
1.4844

Query: refractive index; subject: Cc1ccccc1C [1,2-dimethylbenzene]
1.4921

Query: refractive index; subject: Cc1cc(C)cc(C)c1 [1,3,5-trimethylbenzene]
1.4868

Query: refractive index; subject: C1COCCO1 [1,4-dioxane]
1.4117

Cited source: the NIST ThermoML archive (doi:10.1021/je800579j)
